# TARGET_OF_ASSAY: C-X-C chemokine receptor type 4 (Homo sapiens) (UniProt P61073)
# Sequence (P61073 whole entry): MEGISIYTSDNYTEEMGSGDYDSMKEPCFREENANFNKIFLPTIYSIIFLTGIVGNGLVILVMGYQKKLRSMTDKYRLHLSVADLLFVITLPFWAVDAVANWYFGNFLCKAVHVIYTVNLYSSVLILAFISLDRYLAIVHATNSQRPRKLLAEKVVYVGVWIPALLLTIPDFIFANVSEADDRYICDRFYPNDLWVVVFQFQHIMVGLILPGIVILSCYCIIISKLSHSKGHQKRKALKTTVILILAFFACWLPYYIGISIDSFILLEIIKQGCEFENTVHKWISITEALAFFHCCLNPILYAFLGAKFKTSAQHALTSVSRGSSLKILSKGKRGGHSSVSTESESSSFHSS
# ASSAY_TEXT: Competitive binding affinity at CXCR4 in human MDA-MB-231 cells preincubated for 10 mins followed by biotinylated TN14003 addition further incubated for 30 mins by fluorescence microscopy
# Assay type: cell-based
// EC lookup, one value per entry
PROPERTY_LABEL: EC (nM)

{"STRUCTURE_SMILES": "COc1ccccc1C(=O)NCc1ccc(CNS(=O)(=O)c2ccc(F)cc2)cc1", "PROPERTY_LABEL": "EC", "BOUND_SIGN": "=", "RESULT": 100}
{"STRUCTURE_SMILES": "COc1ccccc1C(=O)NCc1ccc(CNS(=O)(=O)c2cccc3ccccc23)cc1", "PROPERTY_LABEL": "EC", "BOUND_SIGN": ">", "RESULT": 1000}
{"STRUCTURE_SMILES": "Cc1cccc(S(=O)(=O)NCc2ccc(CNC(=O)c3cccnc3)cc2)c1", "PROPERTY_LABEL": "EC", "BOUND_SIGN": "=", "RESULT": 10}
{"STRUCTURE_SMILES": "COc1ccccc1C(=O)NCc1ccc(CNS(=O)(=O)c2cccc(Cl)c2)cc1", "PROPERTY_LABEL": "EC", "BOUND_SIGN": "=", "RESULT": 1000}
{"STRUCTURE_SMILES": "Cc1ccccc1C(=O)NCc1ccc(CNS(=O)(=O)c2ccc(Cl)cc2)cc1", "PROPERTY_LABEL": "EC", "BOUND_SIGN": "=", "RESULT": 1}
{"STRUCTURE_SMILES": "O=C(NCc1ccc(CNS(=O)(=O)c2ccc(F)cc2)cc1)c1cccnc1", "PROPERTY_LABEL": "EC", "BOUND_SIGN": "=", "RESULT": 100}
{"STRUCTURE_SMILES": "COc1ccccc1C(=O)NCc1ccc(CNS(=O)(=O)c2cccc(C)c2)cc1", "PROPERTY_LABEL": "EC", "BOUND_SIGN": "=", "RESULT": 1000}
{"STRUCTURE_SMILES": "Cc1cccc(S(=O)(=O)NCc2ccc(CNC(=O)c3ccccc3C)cc2)c1", "PROPERTY_LABEL": "EC", "BOUND_SIGN": "=", "RESULT": 1000}
{"STRUCTURE_SMILES": "O=C(NCc1ccc(CNS(=O)(=O)c2ccccc2Cl)cc1)c1cccnc1", "PROPERTY_LABEL": "EC", "BOUND_SIGN": "=", "RESULT": 100}
{"STRUCTURE_SMILES": "COc1ccccc1C(=O)NCc1ccc(CNS(=O)(=O)c2cccc(F)c2)cc1", "PROPERTY_LABEL": "EC", "BOUND_SIGN": "=", "RESULT": 1000}

* * *

// EC lookup, one value per entry
# TARGET_OF_ASSAY: C-X-C chemokine receptor type 4 (Homo sapiens) (UniProt P61073)
# ASSAY_TEXT: Competitive binding affinity at CXCR4 in human MDA-MB-231 cells preincubated for 10 mins followed by biotinylated TN14003 addition further incubated for 30 mins by fluorescence microscopy
# Format: cell-based

{"STRUCTURE_SMILES": "O=C(NCc1ccc(CNS(=O)(=O)c2ccc([N+](=O)[O-])cc2)cc1)c1cccnc1", "EC, nM": 100}
{"STRUCTURE_SMILES": "Cc1ccccc1C(=O)NCc1ccc(CNS(=O)(=O)c2cccc(Cl)c2)cc1", "EC, nM": 100}
{"STRUCTURE_SMILES": "COc1ccccc1C(=O)NCc1ccc(CNS(=O)(=O)c2ccccc2F)cc1", "EC, nM": 1}
{"STRUCTURE_SMILES": "Cc1ccccc1C(=O)NCc1ccc(CNS(=O)(=O)c2ccccc2F)cc1", "EC, nM": 1000}
{"STRUCTURE_SMILES": "COc1ccccc1C(=O)NCc1ccc(CNS(=O)(=O)c2ccccc2Cl)cc1", "EC, nM": 100}
